- measurement-parameters: in acetonitrile, 278.15 K
measure-name: solubility (mole fraction)
Lab note: jot the number down without any unit.

Request: Which solubility (mole fraction) is listed for Nc1cccc(Cl)c1C(=O)O ?
Response: 0.00746

----------
- measurement-parameters: in isobutanol, 303.15 K
measure-name: solubility (mole fraction)
Lab note: jot the number down without any unit.

Request: Which solubility (mole fraction) is listed for Nc1cccc(Cl)c1C(=O)O ?
Response: 0.0385

----------
- measurement-parameters: in n-butanol, 303.15 K
measure-name: solubility (mole fraction)
Lab note: jot the number down without any unit.

Request: Which solubility (mole fraction) is listed for Nc1cccc(Cl)c1C(=O)O ?
Response: 0.0439

----------
- measurement-parameters: in ethyl acetate, 283.15 K
measure-name: solubility (mole fraction)
Lab note: jot the number down without any unit.

Request: Which solubility (mole fraction) is listed for Nc1cccc(Cl)c1C(=O)O ?
Response: 0.0303

----------
- measurement-parameters: in ethanol, 283.15 K
measure-name: solubility (mole fraction)
Lab note: jot the number down without any unit.

Request: Which solubility (mole fraction) is listed for Nc1cccc(Cl)c1C(=O)O ?
Response: 0.0346

----------
- measurement-parameters: in water, 303.15 K
measure-name: solubility (mole fraction)
Lab note: jot the number down without any unit.

Request: Which solubility (mole fraction) is listed for Nc1cccc(Cl)c1C(=O)O ?
Response: 0.0014

----------
- measurement-parameters: in n-heptanol, 318.15 K
measure-name: solubility (mole fraction)
Lab note: jot the number down without any unit.

Request: Which solubility (mole fraction) is listed for Nc1cccc(Cl)c1C(=O)O ?
Response: 0.0625

----------
- measurement-parameters: in cyclohexane, 308.15 K
measure-name: solubility (mole fraction)
Lab note: jot the number down without any unit.

Request: Which solubility (mole fraction) is listed for Nc1cccc(Cl)c1C(=O)O ?
Response: 0.000205

----------
- measurement-parameters: in NMP, 283.15 K
measure-name: solubility (mole fraction)

Request: Which solubility (mole fraction) is listed for Nc1cccc(Cl)c1C(=O)O ?
Response: 0.0797

----------
- measurement-parameters: in cyclohexane, 283.15 K
measure-name: solubility (mole fraction)

Request: Which solubility (mole fraction) is listed for Nc1cccc(Cl)c1C(=O)O ?
Response: 4.1e-05

----------
- measurement-parameters: in NMP, 303.15 K
measure-name: solubility (mole fraction)
Lab note: jot the number down without any unit.

Request: Which solubility (mole fraction) is listed for Nc1cccc(Cl)c1C(=O)O ?
Response: 0.119

----------
- measurement-parameters: in n-propanol, 303.15 K
measure-name: solubility (mole fraction)

Request: Which solubility (mole fraction) is listed for Nc1cccc(Cl)c1C(=O)O ?
Response: 0.0498

----------
- measurement-parameters: in n-heptanol, 298.15 K
measure-name: solubility (mole fraction)
Lab note: jot the number down without any unit.

Request: Which solubility (mole fraction) is listed for Nc1cccc(Cl)c1C(=O)O ?
Response: 0.0276

----------
- measurement-parameters: in n-heptanol, 308.15 K
measure-name: solubility (mole fraction)
Lab note: jot the number down without any unit.

Request: Which solubility (mole fraction) is listed for Nc1cccc(Cl)c1C(=O)O ?
Response: 0.0414

----------
- measurement-parameters: in ethanol, 278.15 K
measure-name: solubility (mole fraction)
Lab note: jot the number down without any unit.

Request: Which solubility (mole fraction) is listed for Nc1cccc(Cl)c1C(=O)O ?
Response: 0.0284
